system: JAK1-dependent STAT6 phosphorylation downstream of IL-13 stimulation in TF-1 human erythroleukemia cells; assay: JAK1 pathway assay in TF-1 cells (IL-13-pSTAT6, MSD); assay type: cell-based; details: Homo sapiens, TF-1, TF-1 cells, read-out: IL13-pSTAT6 EC50_TF-1
Reported pEC50 values follow for various compounds
// pEC50 here means minus log10 of the molar concentration (mol/L)

What pEC50 value was documented for this compound, O=C(Nc1cn(CC(=O)N2CCC(NCCc3ccc(C(F)(F)F)cc3)CC2)nc1-c1cc(Cl)ccc1OC(F)F)c1cnn2cccnc12 [Example 93] ? 7.02

Any idea what its pEC50 is? The compound is CNC(=O)CCCN1CCC(n2cc(NC(=O)c3cnn4cccnc34)c(-c3cc(Cl)ccc3OC(F)F)n2)CC1 [Example 168] 8.11

Which measured pEC50 value corresponds to O=C(Nc1cn(CC(=O)N2C[C@H]3CN(CC4CCN(C(=O)OCc5ccccc5)CC4)C[C@H]3C2)nc1-c1cc(Cl)ccc1OC(F)F)c1cnn2cccnc12 [Example 17] ? 7.09

Please look up its pEC50: O=C(Nc1cn(CC(=O)N2C[C@H]3CN(CCCN4CCOC4=O)C[C@H]3C2)nc1-c1cc(Cl)ccc1OC(F)F)c1cnn2cccnc12 [Example 32] 7.01

* * *

Item-by-item account of EC50
system: JAK1-dependent STAT6 phosphorylation downstream of IL-13 stimulation in BEAS-2B human bronchial epithelial cells; experiment: JAK1 pathway assay in BEAS-2B cells (IL-13-pSTAT6, MSD); format: cell-based; settings: read-out: IL13-pSTAT6 EC50 (uM)_BEAS-2B
Counter-ions that a name gives are not always drawn.
Answer format: numeric, µM implied, no suffix.

CC(C)(C)OC(=O)N1CC[C@H](O)[C@@H](n2cc(NC(=O)c3cnn4cccnc34)c(-c3cc(Cl)ccc3OC(F)F)n2)C1 (single isomer, unassigned); 0.0216
COC(=O)C1(C)CCN(CCN2CCN(C(=O)Cn3cc(NC(=O)c4cnn5cccnc45)c(-c4cc(Cl)ccc4OC(F)F)n3)CC2)CC1 [Example 335, formate]; 0.0121
N#CCCCNC1CCN(C(=O)Cn2cc(NC(=O)c3cnn4cccnc34)c(-c3cc(Cl)ccc3OC(F)F)n2)CC1; 0.041
CN(C)C(=O)CN(C)C1CCN(C(=O)Cn2cc(NC(=O)c3cnn4cccnc34)c(-c3cc(Cl)ccc3OC(F)F)n2)CC1; 0.0309
O=C(Nc1cn(CC(O)CN2CCCCC2)nc1-c1cc(Cl)ccc1OC(F)F)c1cnn2cccnc12 (centres unmarked); 0.0257
CN(C)CCOC(=O)C1CCN(C(=O)Cn2cc(NC(=O)c3cnn4cccnc34)c(-c3cc(Cl)ccc3OC(F)F)n2)CC1; 0.0177
CN(CCc1ccc(Cl)cc1)C1CCN(C(=O)Cn2cc(NC(=O)c3cnn4cccnc34)c(-c3cc(Cl)ccc3OC(F)F)n2)CC1; 0.0931
O=C(O)CN1CCN(C(=O)Cn2cc(NC(=O)c3cnn4cccnc34)c(-c3cc(Cl)ccc3OC(F)F)n2)CC1; 8.83

I have this compound here, CN(C)C(=O)[C@@H]1CCCN1CC1CCN(C(=O)Cn2cc(NC(=O)c3cnn4cccnc34)c(-c3cc(Cl)ccc3OC(F)F)n2)CC1 , and I need its recorded EC50. 0.0312

Sample CN(CCCC#N)C1CCN(C(=O)Cn2cc(NC(=O)c3cnn4cccnc34)c(-c3cc(Cl)ccc3OC(F)F)n2)CC1 — what was its EC50? 0.0095

Tell me the measured EC50 of CSCCN1CCN(C(=O)Cn2cc(NC(=O)c3cnn4cccnc34)c(-c3cc(Cl)ccc3OC(F)F)n2)CC1 , please. 0.0197

Provenance of the data: patent US9346815B2
